Biological target: RAR-γ (Homo sapiens, UniProt P13631)
Construct: expressed in transfected cells; host or cells: COS-1 (African green monkey kidney cells), transient lipofection
Sequence (P13631 whole entry): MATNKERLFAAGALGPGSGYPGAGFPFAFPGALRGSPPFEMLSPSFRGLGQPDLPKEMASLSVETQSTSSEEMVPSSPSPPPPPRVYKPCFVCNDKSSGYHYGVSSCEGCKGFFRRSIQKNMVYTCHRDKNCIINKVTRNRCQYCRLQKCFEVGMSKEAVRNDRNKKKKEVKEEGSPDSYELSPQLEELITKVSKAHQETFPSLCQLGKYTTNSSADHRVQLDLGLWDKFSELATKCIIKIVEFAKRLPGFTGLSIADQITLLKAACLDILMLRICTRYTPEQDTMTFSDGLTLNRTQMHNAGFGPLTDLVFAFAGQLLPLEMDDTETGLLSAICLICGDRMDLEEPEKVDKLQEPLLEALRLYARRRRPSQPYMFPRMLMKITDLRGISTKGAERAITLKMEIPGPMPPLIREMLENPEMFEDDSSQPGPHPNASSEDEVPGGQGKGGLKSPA
Assay: Transcription accelerating activity through RARs (PLAP reporter in COS-1 cells)
Assay type: cell-based
Settings: relative to ED30 of all-trans retinoic acid = 1, ED30 = concentration giving 30% of activity induced by 1 μM all-trans retinoic acid
Description: Measurement of the Activities of Accelerating Trans-cription Through RARs […] On a 60-mm culture dish were scattered 2.5×10^4 COS-1 cells. […] The resulting mixture was reacted at 37° C. for 30 minutes and the intensity of luminescence was determined. […]
Give MET when the value for Transcription accelerating activity Relative ED30 RAR-γ is at least 200. Give NOT MET when it is less.

# entry-smiles, class-assignment
records = [
    ("O=C(O)c1ccc(-c2ccc(-c3cc4c(F)ccc(F)c4o3)[nH]2)cc1", "MET"),
    ("Cc1cc(C)c2oc(-c3ccc(-c4ccc(C(=O)O)cc4)[nH]3)cc2c1", "MET"),
    ("O=C(O)c1ccc(-c2ccc(-c3cc4cccc(Cl)c4o3)[nH]2)cc1", "MET"),
    ("O=C(O)c1ccc(-c2ccc(-c3cc4c(Cl)cccc4o3)[nH]2)cc1", "MET"),
    ("CCc1cccc2cc(-c3ccc(-c4ccc(C(=O)O)cc4)[nH]3)oc12", "NOT MET"),
    ("Cc1cc(C)c2cc(-c3ccc(-c4ccc(C(=O)O)cc4)[nH]3)oc2c1C", "NOT MET"),
    ("CCCc1cccc2cc(-c3ccc(-c4ccc(C(=O)O)cc4)[nH]3)oc12", "MET"),
    ("O=C(O)c1ccc(-c2ccc(-c3cc4c(Cl)ccc(Cl)c4o3)[nH]2)cc1", "MET"),
    ("CCc1ccc(OC)c2ccc(-c3ccc(-c4ccc(C(=O)O)cc4)[nH]3)cc12", "MET"),
    ("Cc1cccc2ccc(-c3ccc(-c4ccc(C(=O)O)cc4)[nH]3)cc12", "MET"),
    ("Cc1ccc(Cl)c2oc(-c3ccc(-c4ccc(C(=O)O)cc4)[nH]3)cc12", "MET"),
    ("CCc1ccc(C)c2cc(-c3ccc(-c4ccc(C(=O)O)cc4)[nH]3)oc12", "NOT MET"),
    ("CCc1ccc(Cl)c2cc(-c3ccc(-c4ccc(C(=O)O)cc4)[nH]3)oc12", "MET"),
    ("Cc1ccc(C)c2sc(-c3ccc(-c4ccc(C(=O)O)cc4)[nH]3)cc12", "NOT MET"),
    ("CCc1cccc2ccc(-c3ccc(-c4ccc(C(=O)O)cc4)[nH]3)cc12", "NOT MET"),
    ("Cc1ccc(F)c2cc(-c3ccc(-c4ccc(C(=O)O)cc4)[nH]3)oc12", "MET"),
    ("Cc1c(-c2ccc(-c3ccc(C(=O)O)cc3)[nH]2)oc2c(Cl)ccc(Cl)c12", "MET"),
]

---

Attribute: Transcription accelerating activity Relative ED30 RAR-β
Target: RAR-β (Homo sapiens)
Construct: expressed in transfected cells; host or cells: COS-1 (African green monkey kidney cells), transient lipofection
Assay: Transcription accelerating activity through RARs (PLAP reporter in COS-1 cells)
Assay type: cell-based
Conditions: relative to ED30 of all-trans retinoic acid = 1, ED30 = concentration giving 30% of activity induced by 1 μM all-trans retinoic acid
measurement-kind: Transcription accelerating activity Relative ED30 RAR-β

# entry-smiles, observed
records = [
    ("Cc1ccc(C)c2c1C=C(c1ccc(-c3ccc(C(=O)O)cc3)[nH]1)CO2", 240),
    ("CCc1cc(Cl)cc2cc(-c3ccc(-c4ccc(C(=O)O)cc4)[nH]3)oc12", 67),
    ("Cc1c(-c2ccc(-c3ccc(C(=O)O)cc3)[nH]2)oc2c(Cl)ccc(Cl)c12", 14),
    ("Cc1cc(C)c2cc(-c3ccc(-c4ccc(C(=O)O)cc4)[nH]3)oc2c1C", 24),
]

---

Target: RAR-β (Homo sapiens, UniProt P10826)
Construct: expressed in transfected cells; host or cells: COS-1 (African green monkey kidney cells), transient lipofection
Sequence (P10826 1-455): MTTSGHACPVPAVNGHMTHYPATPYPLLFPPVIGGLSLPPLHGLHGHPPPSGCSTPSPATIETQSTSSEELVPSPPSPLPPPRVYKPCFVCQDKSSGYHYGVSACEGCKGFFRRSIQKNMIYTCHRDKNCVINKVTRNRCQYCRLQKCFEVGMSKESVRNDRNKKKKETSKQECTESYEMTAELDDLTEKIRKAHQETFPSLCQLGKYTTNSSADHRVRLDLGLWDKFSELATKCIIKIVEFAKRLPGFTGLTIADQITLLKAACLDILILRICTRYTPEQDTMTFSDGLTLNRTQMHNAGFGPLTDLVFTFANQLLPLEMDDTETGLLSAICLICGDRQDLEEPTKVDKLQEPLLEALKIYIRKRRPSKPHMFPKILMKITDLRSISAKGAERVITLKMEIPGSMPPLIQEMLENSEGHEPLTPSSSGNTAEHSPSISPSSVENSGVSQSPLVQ
Experiment: Transcription accelerating activity through RARs (PLAP reporter in COS-1 cells)
Type: cell-based
Settings: relative to ED30 of all-trans retinoic acid = 1, ED30 = concentration giving 30% of activity induced by 1 μM all-trans retinoic acid
Label criterion met when Transcription accelerating activity Relative ED30 RAR-β < 60; otherwise criterion not met.

# entry-smiles, class-assignment
records = [
    ("Cc1cccc2ccc(-c3ccc(-c4ccc(C(=O)O)cc4)[nH]3)cc12", "criterion not met"),
    ("Cc1ccc(C)c2c(C)c(-c3ccc(-c4ccc(C(=O)O)cc4)[nH]3)oc12", "criterion met"),
    ("CCc1cc(F)cc2cc(-c3ccc(-c4ccc(C(=O)O)cc4)[nH]3)oc12", "criterion not met"),
    ("CCc1cccc2cc(-c3ccc(-c4ccc(C(=O)O)cc4)[nH]3)oc12", "criterion met"),
    ("O=C(O)c1ccc(-c2ccc(-c3cc4c(Cl)ccc(Cl)c4o3)[nH]2)cc1", "criterion not met"),
    ("O=C(O)c1ccc(-c2ccc(-c3cc4c(F)ccc(F)c4o3)[nH]2)cc1", "criterion not met"),
    ("CCc1ccc(OC)c2ccc(-c3ccc(-c4ccc(C(=O)O)cc4)[nH]3)cc12", "criterion not met"),
    ("CCc1ccc(C)c2cc(-c3ccc(-c4ccc(C(=O)O)cc4)[nH]3)oc12", "criterion met"),
    ("CCCc1cccc2cc(-c3ccc(-c4ccc(C(=O)O)cc4)[nH]3)oc12", "criterion not met"),
    ("Cc1ccc(Cl)c2sc(-c3ccc(-c4ccc(C(=O)O)cc4)[nH]3)cc12", "criterion not met"),
    ("CC1=CCOc2ccc(-c3ccc(-c4ccc(C(=O)O)cc4)[nH]3)cc21", "criterion not met"),
    ("O=C(O)c1ccc(-c2ccc(-c3cc4cccc(Cl)c4o3)[nH]2)cc1", "criterion not met"),
]

---

Target: RAR-α (Homo sapiens)
Construct: expressed in transfected cells; host or cells: COS-1 (African green monkey kidney cells), transient lipofection
Sequence (P10276 1-462): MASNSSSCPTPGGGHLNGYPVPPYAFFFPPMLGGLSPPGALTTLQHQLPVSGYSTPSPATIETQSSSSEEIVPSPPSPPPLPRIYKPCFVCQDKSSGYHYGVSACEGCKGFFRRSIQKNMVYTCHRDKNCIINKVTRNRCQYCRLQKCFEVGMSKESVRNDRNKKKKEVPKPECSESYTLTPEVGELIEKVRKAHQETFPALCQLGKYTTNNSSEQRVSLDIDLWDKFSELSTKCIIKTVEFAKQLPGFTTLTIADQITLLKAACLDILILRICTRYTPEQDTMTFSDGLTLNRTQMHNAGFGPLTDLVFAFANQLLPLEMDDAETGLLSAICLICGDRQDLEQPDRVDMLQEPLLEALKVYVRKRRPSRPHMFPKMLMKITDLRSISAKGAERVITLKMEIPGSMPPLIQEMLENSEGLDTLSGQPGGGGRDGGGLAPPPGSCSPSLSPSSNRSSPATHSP
Experiment: Transcription accelerating activity through RARs (PLAP reporter in COS-1 cells)
Format: cell-based
Conditions: relative to ED30 of all-trans retinoic acid = 1, ED30 = concentration giving 30% of activity induced by 1 μM all-trans retinoic acid
Entries are grouped by Transcription accelerating activity Relative ED30 RAR-α into these classes: group A = under 0.5, group B = from 0.5 up to 0.9, group C = 0.9 and over

# entry-smiles, class-assignment
measured = [
    ("CCc1ccc(OC)c2ccc(-c3ccc(-c4ccc(C(=O)O)cc4)[nH]3)cc12", "group C"),
    ("Cc1ccc(C)c2oc(-c3ccc(-c4ccc(C(=O)O)cc4)[nH]3)cc12", "group A"),
    ("Cc1cccc2c1C=C(c1ccc(-c3ccc(C(=O)O)cc3)[nH]1)CO2", "group C"),
    ("Cc1ccc(C)c2sc(-c3ccc(-c4ccc(C(=O)O)cc4)[nH]3)cc12", "group A"),
    ("Cc1cc(C)c2cc(-c3ccc(-c4ccc(C(=O)O)cc4)[nH]3)oc2c1C", "group B"),
    ("CC1=CCOc2ccc(-c3ccc(-c4ccc(C(=O)O)cc4)[nH]3)cc21", "group C"),
    ("Cc1ccc(C)c2c(C)c(-c3ccc(-c4ccc(C(=O)O)cc4)[nH]3)oc12", "group B"),
    ("CCc1cc(F)cc2cc(-c3ccc(-c4ccc(C(=O)O)cc4)[nH]3)oc12", "group B"),
    ("CCc1cc(Cl)cc2cc(-c3ccc(-c4ccc(C(=O)O)cc4)[nH]3)oc12", "group A"),
    ("Cc1ccc(Cl)c2oc(-c3ccc(-c4ccc(C(=O)O)cc4)[nH]3)cc12", "group A"),
    ("O=C(O)c1ccc(-c2ccc(-c3cc4c(F)ccc(Cl)c4o3)[nH]2)cc1", "group A"),
    ("CCc1ccc(C)c2cc(-c3ccc(-c4ccc(C(=O)O)cc4)[nH]3)oc12", "group A"),
    ("O=C(O)c1ccc(-c2ccc(-c3cc4cccc(Cl)c4o3)[nH]2)cc1", "group C"),
    ("Cc1ccc(Cl)c2sc(-c3ccc(-c4ccc(C(=O)O)cc4)[nH]3)cc12", "group B"),
    ("CCc1ccc(Cl)c2cc(-c3ccc(-c4ccc(C(=O)O)cc4)[nH]3)oc12", "group B"),
    ("Cc1ccc(F)c2cc(-c3ccc(-c4ccc(C(=O)O)cc4)[nH]3)oc12", "group A"),
    ("O=C(O)c1ccc(-c2ccc(-c3cc4c(F)ccc(F)c4o3)[nH]2)cc1", "group B"),
    ("Cc1cc(C)c2oc(-c3ccc(-c4ccc(C(=O)O)cc4)[nH]3)cc2c1", "group A"),
    ("O=C(O)c1ccc(-c2ccc(-c3cc4c(Cl)ccc(Cl)c4o3)[nH]2)cc1", "group C"),
    ("CCCc1cccc2cc(-c3ccc(-c4ccc(C(=O)O)cc4)[nH]3)oc12", "group C"),
    ("Cc1c(-c2ccc(-c3ccc(C(=O)O)cc3)[nH]2)oc2c(Cl)ccc(Cl)c12", "group B"),
    ("O=C(O)c1ccc(-c2ccc(-c3cc4c(Cl)cccc4o3)[nH]2)cc1", "group B"),
    ("Cc1ccc(C)c2c1C=C(c1ccc(-c3ccc(C(=O)O)cc3)[nH]1)CO2", "group C"),
    ("COc1ccc2ccc(-c3ccc(-c4ccc(C(=O)O)cc4)[nH]3)cc2c1C", "group C"),
    ("CCc1cccc2cc(-c3ccc(-c4ccc(C(=O)O)cc4)[nH]3)oc12", "group A"),
]
